Molecular target: T1, alpha-s1 casein from Bos taurus
T1 chain: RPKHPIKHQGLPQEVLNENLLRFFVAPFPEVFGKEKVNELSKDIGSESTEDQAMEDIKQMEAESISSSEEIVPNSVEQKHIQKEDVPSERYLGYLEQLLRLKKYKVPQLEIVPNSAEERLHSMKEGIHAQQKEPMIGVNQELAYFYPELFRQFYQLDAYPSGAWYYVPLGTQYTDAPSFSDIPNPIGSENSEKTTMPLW
Outcome Measure: αs1 CN, 6 hours, 11° C. (Volume)
Write the value in Volume as a bare number.

{"columns": ["Protein", "αs1 CN, 6 hours, 11° C. [Volume]"],
 "data": [
  ["camel chymosin variant #138 (F223E) (protein) GKVAREPLTSYLDSQYFGKIYIGTPPQEFTVVFDTGSSDLWVPSIYCKSNVCKNHHRFDPRKSSTFRNLGKPLSIHYGTGSMEGFLGYDTVTVSNIVDPNQTVGLSTEQPGEVFTYSEFDGILGLAYPSLASEYSVPVFDNMMDRHLVARDLFSVYMDRNGQGSMLTLGAIDPSYYTGSLHWVPVTLQQYWQFTVDSVTINGVAVACVGGCQAILDTGTSVLEGPSSDILKIQMAIGATENRYGEFDVNCGNLRSMPTVVFEINGRDYPLSPSAYTSKDQGFCTSGFQGDNNSELWILGDVFIREYYSVFDRANNRVGLAKAI", "3.29e+07"],
  ["camel chymosin variant #140 (F223M) (protein) GKVAREPLTSYLDSQYFGKIYIGTPPQEFTVVFDTGSSDLWVPSIYCKSNVCKNHHRFDPRKSSTFRNLGKPLSIHYGTGSMEGFLGYDTVTVSNIVDPNQTVGLSTEQPGEVFTYSEFDGILGLAYPSLASEYSVPVFDNMMDRHLVARDLFSVYMDRNGQGSMLTLGAIDPSYYTGSLHWVPVTLQQYWQFTVDSVTINGVAVACVGGCQAILDTGTSVLMGPSSDILKIQMAIGATENRYGEFDVNCGNLRSMPTVVFEINGRDYPLSPSAYTSKDQGFCTSGFQGDNNSELWILGDVFIREYYSVFDRANNRVGLAKAI", "3.22e+07"]
]}

### Prompt Identify measured αs1 CN, 6 hours, 11° C. corresponding to bovine chymosin B variant #62 (V223Q) (protein) GEVASVPLTNYLDSQYFGKIYLGTPPQEFTVLFDTGSSDFWVPSIYCKSNACKNHQRFDPRKSSTFQNLGKPLSIHYGTGSMQGILGYDTVTVSNIVDIQQTVGLSTQEPGDVFTYAEFDGILGMAYPSLASEYSIPVFDNMMNRHLVAQDLFSVYMDRNGQESMLTLGAIDPSYYTGSLHWVPVTVQQYWQFTVDSVTISGVVVACEGGCQAILDTGTSKLQGPSSDILNIQQAIGATQNQYGEFDIDCDNLSYMPTVVFEINGKMYPLTPSAYTSQDQGFCTSGFQSENHSQKWILGDVFIREYYSVFDRANNLVGLAKAI
### Response 2.67e+07

### Prompt Identify measured αs1 CN, 6 hours, 11° C. corresponding to camel chymosin variant #137 (F223D) (protein) GKVAREPLTSYLDSQYFGKIYIGTPPQEFTVVFDTGSSDLWVPSIYCKSNVCKNHHRFDPRKSSTFRNLGKPLSIHYGTGSMEGFLGYDTVTVSNIVDPNQTVGLSTEQPGEVFTYSEFDGILGLAYPSLASEYSVPVFDNMMDRHLVARDLFSVYMDRNGQGSMLTLGAIDPSYYTGSLHWVPVTLQQYWQFTVDSVTINGVAVACVGGCQAILDTGTSVLDGPSSDILKIQMAIGATENRYGEFDVNCGNLRSMPTVVFEINGRDYPLSPSAYTSKDQGFCTSGFQGDNNSELWILGDVFIREYYSVFDRANNRVGLAKAI
### Response 3.14e+07

### Prompt Identify measured αs1 CN, 6 hours, 11° C. corresponding to camel chymosin variant #146 (Q288G) (protein) GKVAREPLTSYLDSQYFGKIYIGTPPQEFTVVFDTGSSDLWVPSIYCKSNVCKNHHRFDPRKSSTFRNLGKPLSIHYGTGSMEGFLGYDTVTVSNIVDPNQTVGLSTEQPGEVFTYSEFDGILGLAYPSLASEYSVPVFDNMMDRHLVARDLFSVYMDRNGQGSMLTLGAIDPSYYTGSLHWVPVTLQQYWQFTVDSVTINGVAVACVGGCQAILDTGTSVLFGPSSDILKIQMAIGATENRYGEFDVNCGNLRSMPTVVFEINGRDYPLSPSAYTSKDQGFCTSGFGGDNNSELWILGDVFIREYYSVFDRANNRVGLAKAI
### Response 2.38e+07

### Prompt Identify measured αs1 CN, 6 hours, 11° C. corresponding to camel chymosin variant #147 (Q288H) (protein) GKVAREPLTSYLDSQYFGKIYIGTPPQEFTVVFDTGSSDLWVPSIYCKSNVCKNHHRFDPRKSSTFRNLGKPLSIHYGTGSMEGFLGYDTVTVSNIVDPNQTVGLSTEQPGEVFTYSEFDGILGLAYPSLASEYSVPVFDNMMDRHLVARDLFSVYMDRNGQGSMLTLGAIDPSYYTGSLHWVPVTLQQYWQFTVDSVTINGVAVACVGGCQAILDTGTSVLFGPSSDILKIQMAIGATENRYGEFDVNCGNLRSMPTVVFEINGRDYPLSPSAYTSKDQGFCTSGFHGDNNSELWILGDVFIREYYSVFDRANNRVGLAKAI
### Response 2.15e+07

### Prompt Identify measured αs1 CN, 6 hours, 11° C. corresponding to camel chymosin variant #164 (L295Y) (protein) GKVAREPLTSYLDSQYFGKIYIGTPPQEFTVVFDTGSSDLWVPSIYCKSNVCKNHHRFDPRKSSTFRNLGKPLSIHYGTGSMEGFLGYDTVTVSNIVDPNQTVGLSTEQPGEVFTYSEFDGILGLAYPSLASEYSVPVFDNMMDRHLVARDLFSVYMDRNGQGSMLTLGAIDPSYYTGSLHWVPVTLQQYWQFTVDSVTINGVAVACVGGCQAILDTGTSVLFGPSSDILKIQMAIGATENRYGEFDVNCGNLRSMPTVVFEINGRDYPLSPSAYTSKDQGFCTSGFQGDNNSEYWILGDVFIREYYSVFDRANNRVGLAKAI
### Response 2.49e+07

### Prompt Identify measured αs1 CN, 6 hours, 11° C. corresponding to camel chymosin variant #144 (F223Y) (protein) GKVAREPLTSYLDSQYFGKIYIGTPPQEFTVVFDTGSSDLWVPSIYCKSNVCKNHHRFDPRKSSTFRNLGKPLSIHYGTGSMEGFLGYDTVTVSNIVDPNQTVGLSTEQPGEVFTYSEFDGILGLAYPSLASEYSVPVFDNMMDRHLVARDLFSVYMDRNGQGSMLTLGAIDPSYYTGSLHWVPVTLQQYWQFTVDSVTINGVAVACVGGCQAILDTGTSVLYGPSSDILKIQMAIGATENRYGEFDVNCGNLRSMPTVVFEINGRDYPLSPSAYTSKDQGFCTSGFQGDNNSELWILGDVFIREYYSVFDRANNRVGLAKAI
### Response 3.12e+07

### Prompt Identify measured αs1 CN, 6 hours, 11° C. corresponding to bovine chymosin B variant #1 (A51V) (protein) GEVASVPLTNYLDSQYFGKIYLGTPPQEFTVLFDTGSSDFWVPSIYCKSNVCKNHQRFDPRKSSTFQNLGKPLSIHYGTGSMQGILGYDTVTVSNIVDIQQTVGLSTQEPGDVFTYAEFDGILGMAYPSLASEYSIPVFDNMMNRHLVAQDLFSVYMDRNGQESMLTLGAIDPSYYTGSLHWVPVTVQQYWQFTVDSVTISGVVVACEGGCQAILDTGTSKLVGPSSDILNIQQAIGATQNQYGEFDIDCDNLSYMPTVVFEINGKMYPLTPSAYTSQDQGFCTSGFQSENHSQKWILGDVFIREYYSVFDRANNLVGLAKAI
### Response 2.05e+07
